Data provenance: paper PMC11845477

System: E. coli ATCC 25922 (SEN) and E. coli NCTC13846 (MDR)
method description: Frequency-of-resistance (FoR) assay, relative MIC of mutants
Format: cell-based, Escherichia coli
condition set: Escherichia coli ATCC 25922 (EC-SEN); evolved line 3 versus ancestor
property label: Relative MIC
Answers are plain numbers.

Here's what some known entries look like.
# compound, Relative MIC
data = [
    ("CNC(C)C1CCC(N)C(OC2C(N)CC(N)C(OC3OCC(C)(O)C(NC)C3O)C2O)O1 (centres unmarked)", 8),
    ("C[C@@H]1CN2c3c(cc4c(N5C(=O)OC[C@@H]5C)noc4c3F)CC3(C(=O)NC(=O)NC3=O)[C@H]2[C@H](C)O1", 8),
    ("O=c1ccc2ncc(=O)n3c2n1C[C@H]3CN1CCC(NCc2cc3c(cn2)OCCC3)CC1", 1),
]

Batch lookup, Relative MIC per entry.
1. CN(C)c1cc(CNCC(C)(C)C)c(O)c2c1C[C@H]1C[C@H]3[C@H](N(C)C)C(O)=C(C(N)=O)C(=O)[C@@]3(O)C(O)=C1C2=O
2. CN(C)[C@@H]1C(O)=C(C(N)=O)C(=O)[C@@]2(O)C(O)=C3C(=O)c4c(O)c(NC(=O)CN5CCCC5)cc(F)c4C[C@H]3C[C@@H]12

Reply:
1. 2
2. 2

Batch lookup, Relative MIC per entry.
1. C[C@@H](O)[C@H]1C(=O)N2C(C(=O)O)=C(S[C@H]3CC[S@@+]([O-])C3)S[C@H]12
2. Nc1nc(-n2cc(C(=O)O)c(=O)c3cc(F)c(N4CC(O)C4)c(Cl)c32)c(F)cc1F

Reply:
1. 1
2. 1

Task item: Provide the documented Relative MIC with E. coli ATCC 25922 (SEN) and E. coli NCTC13846 (MDR) as the system for `C[C@H]1c2cccc(O)c2C(=O)C2=C(O)[C@]3(O)C(=O)C(C(N)=O)=C(O)[C@@H](N(C)C)[C@@H]3[C@@H](O)[C@@H]21`
Reply: 2
